target_system: HLA-B*07:02
test_method_notes: IEDB peptide-MHC binding, purified MHC/competitive/radioactivity; bounds were set here for any values at or beyond the usual limits of such assays
conditions: source organism: Homo sapiens
quantity: IC50 (nM)
Your answer is read as nM, so omit the unit and give the number.

Request: Provide measured IC50 on HLA-B*07:02 for `LPHSSSHWL` please.
Response: 17.2

----------
target_system: HLA-A*03:01
test_method_notes: IEDB peptide-MHC binding, purified MHC/competitive/radioactivity; bounds were set here for any values at or beyond the usual limits of such assays
conditions: source organism: Homo sapiens
quantity: IC50
Don't forget the unit after the number, please.

Request: State its IC50 for this sequence: `YMVPFIPLYR`
Response: 26.3 nM

Request: State its IC50 for this sequence: `VVLASLIYRR`
Response: 161 nM

Request: State its IC50 for this sequence: `SIFEQWLRR`
Response: 45.5 nM

Request: State its IC50 for this sequence: `VVLASLIYR`
Response: 17.9 nM

Request: State its IC50 for this sequence: `LIGCWYCRRR`
Response: 179 nM

Request: State its IC50 for this sequence: `HTMEVTVYHR`
Response: 179 nM
